Listing of recorded IC50 by entry.
molecular target: HCV polymerase (NS5B) type 1a (Hepatitis C virus genotype 1a); construct: made in house; host or cells: Escherichia coli (by the 'similar method' of the 1b enzyme); experiment: Assay of enzyme (HCV polymerase) inhibitory activity, type 1a enzyme; assay type: biochemical, HCV type 1a (cloned from the blood of patients); details: HCV polymerase inhibitory activity (IC50), 1a, type 1a enzyme 1.5 μg/ml, 25° C., 60 min

- Compound: "CCCc1ccc(CNC(=O)[C@H]2CN(c3cc(C)c(C(=O)OC)nn3)CCN2S(=O)(=O)c2ccc(OC(F)(F)F)cc2)cc1"
  IC50: "< 100 nM"
- Compound: "CCC(F)(F)c1ccc(CNC(=O)[C@H]2CN(c3ccncn3)CCN2S(=O)(=O)c2ccc(OC(F)(F)F)cc2)cc1"
  IC50: "< 100 nM"
- Compound: "Cc1nc(N2CCN(S(=O)(=O)c3ccc(OC(F)(F)F)cc3)[C@@H](C(=O)NCCc3ccccc3)C2)sc1C(=O)O"
  IC50: "> 1000 nM"
- Compound: "CCCc1ccc(CNC(=O)[C@H]2CN(C(=O)Cn3nnc(CC(=O)OCC)n3)CCN2S(=O)(=O)c2ccc(OC(F)(F)F)cc2)cc1"
  IC50: "< 100 nM"
- Compound: "CCOc1ccc(S(=O)(=O)N2CCN(C(C)=O)C[C@@H]2C(=O)NCc2ccc(C(C)C)cc2)cc1"
  IC50: "100 to 1000 nM"
- Compound: "CCCc1ccc(CNC(=O)[C@H]2CN(c3nc(CO)cs3)CCN2S(=O)(=O)c2ccc(OC(F)(F)F)cc2)cc1"
  IC50: "< 100 nM"
- Compound: "COc1ccc(CNC(=O)C2CN(C(C)=O)CCN2S(=O)(=O)c2ccc(C(C)C)cc2)c(OC)c1 (stereo not shown)"
  IC50: "> 1000 nM"

====

target: HCV polymerase (NS5B) type 1b (Hepatitis C virus genotype 1b, UniProt P26663); construct: a region encoding NS5B (J Virol 1991 March, 65(3), 1105-13, 544 amino acids after deletion of 47 amino acids on the C-terminal); 6xHis (C); made in house; host or cells: Escherichia coli; test: Assay of enzyme (HCV polymerase) inhibitory activity, type 1b enzyme; type: biochemical, HCV BK strain (type 1b); details: HCV polymerase inhibitory activity (IC50), 1b, type 1b enzyme 0.5 μg/ml, 25° C., 60 min
pIC50: −log10 of the molar value.
Listing of recorded pIC50 by entry.
Recorded metric: pIC50

- Compound: "Cc1nc(N2CCN(S(=O)(=O)c3ccc(OC(F)(F)F)cc3)[C@@H](C(=O)NCc3ccc(C(C)C)cc3)C2)sc1C(N)=O [Example 340]"
  Recorded metric: "pIC50"
  Test result: "> 7.00"
- Compound: "CC(C)c1ccc(S(=O)(=O)N2CCN(C(=O)N(C)C)CC2C(=O)NCc2ccc(C(F)(F)F)cc2)cc1 (stereo not shown) [Example 59]"
  Recorded metric: "pIC50"
  Test result: "< 6.00"
- Compound: "COc1ccc(S(=O)(=O)N2CCN(C(C)=O)CC2C(=O)NCc2ccc(C(F)(F)F)cc2)cc1OC (stereo not shown) [Example 136]"
  Recorded metric: "pIC50"
  Test result: "< 6.00"
- Compound: "CC(=O)N1CCN(S(=O)(=O)c2ccc(C(C)C)cc2)[C@@H](C(=O)NCc2ccc(C(C)C)cc2F)C1 [Example 292]"
  Recorded metric: "pIC50"
  Test result: "> 7.00"
- Compound: "CC(=O)N1CCN(S(=O)(=O)c2cc(C)cc(C)c2Oc2ccc(C#N)cc2)C(C(=O)NCc2ccc(C(F)(F)F)cc2)C1 (stereo not shown) [Example 27]"
  Recorded metric: "pIC50"
  Test result: "< 6.00"
- Compound: "CC(=O)N1CCN(S(=O)(=O)c2ccc(C(C)C)cc2)[C@@H](C(=O)NCc2ccc(C(C)(C)C(=O)N(C)C)cc2)C1 [Example 233]"
  Recorded metric: "pIC50"
  Test result: "< 6.00"
- Compound: "CC(=O)N1CCN(S(=O)(=O)c2ccc(C(C)C)cc2)C(C(=O)NCc2ccc(-c3ccccc3)cc2)C1 (stereo not shown) [Example 36]"
  Recorded metric: "pIC50"
  Test result: "< 6.00"

====

target: HCV polymerase (NS5B) type 1a (Hepatitis C virus genotype 1a); construct: made in house; host or cells: Escherichia coli (by the 'similar method' of the 1b enzyme); assay: Assay of enzyme (HCV polymerase) inhibitory activity, type 1a enzyme; assay type: biochemical, HCV type 1a (cloned from the blood of patients); details: HCV polymerase inhibitory activity (IC50), 1a, type 1a enzyme 1.5 μg/ml, 25° C., 60 min
pIC50: −log10 of the molar value.
Listing of recorded pIC50 by entry.
Recorded metric: pIC50

- Compound: "CC(=O)N1CCN(S(=O)(=O)c2ccc(C(C)C)cc2)[C@@H](C(=O)NCc2ccc(C(C)(F)F)cc2)C1 [Example 293]"
  Test result: "6.00 to 7.00"
- Compound: "COc1ccc(S(=O)(=O)N2CCN(C(C)=O)C[C@@H]2C(=O)NCc2ccc(C(C)C)cc2)cc1C#N [Example 239]"
  Test result: "< 6.00"
- Compound: "CC(C)(C)c1ccc(CNC(=O)[C@H]2CN(c3cnc(C(=O)O)cn3)CCN2S(=O)(=O)c2ccc(OC(F)(F)F)cc2)cc1 [Example 501]"
  Test result: "> 7.00"
- Compound: "CC(=O)N1CCN(S(=O)(=O)c2ccc(C(C)C)cc2)[C@@H](C(=O)NCc2ccc(C(F)(F)F)cc2)C1 [Example 18]"
  Test result: "6.00 to 7.00"

====

Listing of recorded pIC50 by entry.
biological target: HCV polymerase (NS5B) type 1b (Hepatitis C virus genotype 1b, UniProt P26663); construct: a region encoding NS5B (J Virol 1991 March, 65(3), 1105-13, 544 amino acids after deletion of 47 amino acids on the C-terminal); 6xHis (C); made in house; host or cells: Escherichia coli; assay: Assay of enzyme (HCV polymerase) inhibitory activity, type 1b enzyme; format: biochemical, HCV BK strain (type 1b); conditions: HCV polymerase inhibitory activity IC50, 1b, type 1b enzyme
pIC50: −log10 of the molar value.

- Molecule: "CC(C)(C)c1ncc2sc(N3CCN(S(=O)(=O)c4ccc(OC(F)(F)F)cc4)[C@@H](C(=O)NCc4ccc(OC(F)(F)F)cc4)C3)nc2n1"
  pIC50: "> 7.00"
- Molecule: "CCOC(=O)c1ncc2sc(N3CCN(S(=O)(=O)c4ccc(OC(F)(F)F)cc4)[C@@H](C(=O)NCc4ccc(OC(F)(F)F)cc4)C3)nc2n1"
  pIC50: "> 7.00"
- Molecule: "CC(C)c1ncc2sc(N3CCN(S(=O)(=O)c4ccc(C(F)(F)F)cc4)[C@@H](C(=O)NCc4ccc(OC(F)(F)F)cc4)C3)nc2n1"
  pIC50: "> 7.00"
- Molecule: "O=C(NCc1ccc(OC(F)(F)F)cc1)[C@H]1CN(c2nc3nc(Cl)ncc3s2)CCN1S(=O)(=O)c1ccc(OC(F)(F)C(F)F)cc1"
  pIC50: "> 7.00"
- Molecule: "O=C1CCC(N2CCN(S(=O)(=O)c3ccc(OC(F)(F)F)cc3)[C@@H](C(=O)NCc3ccc(OC(F)(F)F)cc3)C2)CN1 (stereo partly drawn)"
  pIC50: "6.00 to 7.00"
- Molecule: "COc1cccc(CCNC(=O)[C@H]2CN(C(C)=O)CCN2S(=O)(=O)c2ccc(OC(F)(F)F)cc2)c1"
  pIC50: "< 6.00"

====

Listing of recorded pIC50 by entry.
target: HCV polymerase (NS5B) type 1b (Hepatitis C virus genotype 1b); construct: a region encoding NS5B (J Virol 1991 March, 65(3), 1105-13, 544 amino acids after deletion of 47 amino acids on the C-terminal); 6xHis (C); made in house; host or cells: Escherichia coli; test: Assay of enzyme (HCV polymerase) inhibitory activity, type 1b enzyme; assay type: biochemical, HCV BK strain (type 1b); conditions: HCV polymerase inhibitory activity (IC50), 1b, type 1b enzyme 0.5 μg/ml, 25° C., 60 min
pIC50: −log10 of the molar value.
Recorded metric: pIC50

- Compound: "CCc1ccc(S(=O)(=O)N2CCN(c3cnc(C(=O)O)cn3)C[C@@H]2C(=O)NCc2ccc(C(C)(C)C)cc2)cc1"
  Recorded metric: "pIC50"
  Test result: "> 7.00"
- Compound: "CC(C)c1ccc(CNC(=O)[C@H]2CN(C(=O)NS(=O)(=O)c3ccccc3)CCN2S(=O)(=O)c2ccc(C(F)(F)F)cc2)cc1"
  Recorded metric: "pIC50"
  Test result: "< 6.00"
- Compound: "CC(C)c1ccc(S(=O)(=O)N2CCN(c3nc4ccccc4s3)CC2C(=O)NCc2ccc(C(F)(F)F)cc2)cc1 (centres unmarked)"
  Recorded metric: "pIC50"
  Test result: "< 6.00"
- Compound: "CC(C)c1ccc(CNC(=O)[C@H]2CN(C(=O)Cn3cncn3)CCN2S(=O)(=O)c2ccc(C(F)(F)F)cc2)cc1"
  Recorded metric: "pIC50"
  Test result: "> 7.00"
- Compound: "COC(=O)Cc1csc(N2CCN(S(=O)(=O)c3ccc(C(F)(F)F)cc3)[C@@H](C(=O)NCc3ccc(C(C)C)cc3)C2)n1"
  Recorded metric: "pIC50"
  Test result: "> 7.00"
- Compound: "CCOC(=O)c1nnc(NC(=O)N2CCN(S(=O)(=O)c3ccc(C(F)(F)F)cc3)[C@@H](C(=O)NCc3ccc(C(C)C)cc3)C2)o1"
  Recorded metric: "pIC50"
  Test result: "< 6.00"
- Compound: "CC(=O)N1CCN(S(=O)(=O)c2ccc(C)cc2)C(C(=O)NCc2ccc(C(F)(F)F)cc2)C1 (centres unmarked)"
  Recorded metric: "pIC50"
  Test result: "< 6.00"
- Compound: "O=C(NCc1ccc(C2CC2)cc1)[C@H]1CN(c2cnc3cncnc3n2)CCN1S(=O)(=O)c1ccc(OC(F)(F)F)cc1"
  Recorded metric: "pIC50"
  Test result: "> 7.00"
- Compound: "CCCc1ccc(CNC(=O)[C@H]2CN(c3cnc(CO)cn3)CCN2S(=O)(=O)c2ccc(CC)cc2)cc1"
  Recorded metric: "pIC50"
  Test result: "> 7.00"
- Compound: "CCNC(=O)N1CCN(S(=O)(=O)c2ccc(C(F)(F)F)cc2)[C@@H](C(=O)NCc2ccc(C(C)C)cc2)C1"
  Recorded metric: "pIC50"
  Test result: "6.00 to 7.00"
- Compound: "CCCc1ccc(CNC(=O)[C@H]2CN(C(=O)Cn3ccnc3)CCN2S(=O)(=O)c2ccc(OC(F)(F)F)cc2)cc1"
  Recorded metric: "pIC50"
  Test result: "> 7.00"
- Compound: "CCCc1ccc(CNC(=O)[C@H]2CN(c3ccc(C(N)=O)nn3)CCN2S(=O)(=O)c2ccc(OC(F)(F)F)cc2)cc1"
  Recorded metric: "pIC50"
  Test result: "> 7.00"
- Compound: "CC(C)c1ccc(CNC(=O)[C@H]2CN(c3ncn[nH]3)CCN2S(=O)(=O)c2ccc(C(F)(F)F)cc2)cc1"
  Recorded metric: "pIC50"
  Test result: "6.00 to 7.00"
- Compound: "COc1ccc(S(=O)(=O)N2CCN(C(C)=O)C[C@@H]2C(=O)NCc2ccc(C(C)C)cc2)cc1CCC(=O)O"
  Recorded metric: "pIC50"
  Test result: "6.00 to 7.00"
